Values from PubChem BioAssay (NCI)

# reported growth; entries follow
# System: 786-0 renal
# test details: NCI-60 one-dose screen, 48 h (100 = growth as untreated, 0 = no growth, -100 = all killed)
# assay conditions: 10 µM unless noted
Compounds without any hit were thinned out: in the full panel of roughly 83,000, 20% have a hit.
Return type: number; implicit unit %.

In the examples that follow, each entry is paired with its recorded growth.
compound	measured parameter	value
O=S(=O)(Nc1ccccc1Cl)c1ccc(-c2cnc(C3CC3)o2)cc1	growth	51.1
COc1ccc(CSc2nc3cc(OC)c(OC)cc3c(=O)n2-c2ccc(Cl)cc2)cc1	growth	103

Q: So what's the measured growth for this one? Cc1ccc(N=c2nc3sc4c(C)ccc(C)c4n3c(N)c2C#N)cc1
Result: 101

Q: So what's the measured growth for this one? O=C1c2ccccc2-c2cn(Cc3ccccc3)c3cccc(c23)C1c1cccnc1 (stereo not given)
Result: 52.2

Q: So what's the measured growth for this one? CCCCc1ccc(NC(=O)C(F)(F)F)cc1
Result: 91.8

Q: So what's the measured growth for this one? CCOC(=O)c1sc(NC(=O)CN2CCC(Cc3ccccc3)CC2)nc1C
Result: 96.9

Q: So what's the measured growth for this one? CN1CCN(c2ccc3nc(-c4ccc5nc(-c6ccc(C(F)(F)F)cc6)[nH]c5c4)[nH]c3c2)CC1
Result: 69.6
